# Study system: BCL6 BTB domain (Homo sapiens (Human), UniProt P41182)
Kd less than 10 nM is Satisfied; Kd greater than or equal to 10 nM is Not satisfied.

These recorded examples may help you get a feel for the data.
[
  {
    "Smiles notation": "Cn1cnc2c(c(-c3cc(Cl)c(O)c(C(N)=O)c3)cn2CC(=O)Nc2cc(N3C[C@H]4CC[C@@H](C3)N4CC(F)(F)F)ncc2Cl)c1=O",
    "Class name": "Not satisfied"
  },
  {
    "Smiles notation": "C[C@H]1CN(C2COC2)CCN1c1cc(NC(=O)Cn2cc(-c3cc(F)c(O)c(C(N)=O)c3)c3c(=O)n(C)cnc32)c(Cl)cn1",
    "Class name": "Satisfied"
  },
  {
    "Smiles notation": "CN(C)c1cc(NC(=O)Cn2cc(-c3cc(F)c(O)c(C(N)=O)c3)c3c(=O)n(C)cnc32)c(Cl)cn1",
    "Class name": "Satisfied"
  },
  {
    "Smiles notation": "COC[C@@H]1COCCN1c1cc(NC(=O)Cn2cc(-c3cc(Cl)c(O)c(C(N)=O)c3)c3c(=O)n(C)cnc32)c(Cl)cn1",
    "Class name": "Not satisfied"
  },
  {
    "Smiles notation": "COc1c(O)c(C(N)=O)cc(-c2cn(CC(=O)Nc3cc(N4CCOC[C@@H]4C)nc(F)c3Cl)c3ncn(C)c(=O)c23)c1F",
    "Class name": "Not satisfied"
  }
]

is_below(Kd, 10 nM) for Cc1nc2c(c(-c3cc(Cl)c(O)c(C(N)=O)c3)cn2CC(=O)Nc2cc(N3CCN(C)C[C@@H]3C)ncc2Cl)c(=O)[nH]1 ? Not satisfied

is_below(Kd, 10 nM) for Cn1cnc2c(c(-c3cc(Cl)c(O)c(C(N)=O)c3)cn2CC(=O)Nc2cc(N3CC(C)(C)NC(C)(C)C3)ncc2Cl)c1=O ? Not satisfied

is_below(Kd, 10 nM) for Cn1cnc2c(c(-c3cc(Cl)c(O)c(C(N)=O)c3)cn2CC(=O)Nc2cc(N3CCCC3)nc(F)c2Cl)c1=O ? Not satisfied

Origin of values: patent US11518764B2
